Cited source for all entries: PubChem BioAssay (EPA / NIEHS)

Target: Thyroid hormone receptor alpha (Rattus norvegicus) + Thyroid hormone receptor beta (Rattus norvegicus) (UniProt P18113+P63059)
Assay: TOX21_TR_LUC_GH3_Antagonist_Followup: Tox21 GH3 Thyroid Hormone Receptor Antagonism Luciferase Follow-Up Assay (AID 2283942)
Method: TOX21_TR_LUC_GH3_Agonist_Followup is a secondary assay for the TOX21_TR_LUC_GH3_Agonist assay. TOX21_TR_LUC_GH3_Agonist_Followup is a cell-based, single-readout assay that uses GH3, a rat pituitary gland cell line, with measurements taken at 28 hours after chemical dosing in a 1536-well plate.TOX21_TR_LUC_GH3_Antagonist_Followup is one of one assay component(s) measured or calculated from the TOX21_TR_LUC_GH3_Antagonist_Followup assay. […]
Inconclusive results are not listed. Calls of active or inactive are those of the source. How the source made its calls: active means hit-call score of the fitted dose curve at least 0.9, where 1 is the maximum; inconclusive means response in the unintended direction; inactive means score below 0.9.

| compound | AC50 |
| --- | --- |
| COCc1c(C(C)C)nc(C(C)C)c(/C=C/[C@@H](O)C[C@@H](O)CC(=O)O)c1-c1ccc(F)cc1 | inactive |
| COc1ccc(C(Cl)=C(c2ccc(OC)cc2)c2ccc(OC)cc2)cc1 | inactive |
| c1cc(N(CC2CO2)CC2CO2)ccc1OCC1CO1 (centres undefined) | 60.9 µM (active) |
| Oc1ccc(Cl)cc1Cc1cc(Cl)ccc1O | 18.7 µM (active) |
